test: Half life in C57BL/6 mouse plasma at 30 mg/kg, po measured upto 24 hrs by LC-ESI-MS/MS analysis; format: ADME, organism-based
measuredQuantity: half-life (h)
Your answer should be a plain number; it is taken to be in h.

[ask] Fill blank: measured half-life of the compound O=C([C@H]1C[C@@H](c2cccc(Cl)c2)CN1)N1CCN(c2nccc3ccsc23)CC1 is ____.
[reply] 1.1

----------
assay: Half life in C57BL/6 mouse plasma at 100 mg/kg, po measured upto 24 hrs by LC-ESI-MS/MS analysis; format: ADME, organism-based
measuredQuantity: half-life (h)
Your answer should be a plain number; it is taken to be in h.

[ask] Fill blank: measured half-life of the molecule O=C([C@H]1C[C@@H](c2cccc(Cl)c2)CN1)N1CCN(c2nccc3ccsc23)CC1 is ____.
[reply] 3.5
